- Test system: HCC1395 (Breast Carcinoma)
- PROCEDURE_TEXT: combination Emax (second highest fraction inhibited in the dose matrix, 72 h); higher = more inhibition; extreme values may be limits of the assay
So I've got a bunch of compounds here, and I need their combination Emax values.

Parameter requested: combination Emax. Apply to each item below.
1. CN(C)CCCOc1ccc(-c2ccc3ncc4c(c3c2)n(C2CCOCC2)c(=O)n4C)cn1 [AZD0156] + O=C(c1cc(Cc2n[nH]c(=O)c3ccccc23)ccc1F)N1CCN(C(=O)C2CC2)CC1 [Olaparib] (first compound max 3 µM, partner max 3 µM)
2. C[C@@H](Oc1cc(-c2cnn(C3CCNCC3)c2)cnc1N)c1c(Cl)ccc(F)c1Cl [Crizotinib] + Cn1cnc2c(F)c(Nc3ccc(Br)cc3Cl)c(C(=O)NOCCO)cc21 [Selumetinib] (first compound max 10 µM, 7x7, partner max 10 µM)
3. Cn1cnc2c(F)c(Nc3ccc(Br)cc3Cl)c(C(=O)NOCCO)cc21 [Selumetinib] + CCN(CCO)CCCOc1ccc2c(Nc3cc(CC(=O)Nc4cccc(F)c4)[nH]n3)ncnc2c1 [AZD2811] (first compound max 10 µM, 7x7, partner max 1 µM)
4. CC1(C)CCC(CN2CCN(c3ccc(C(=O)NS(=O)(=O)c4ccc(NCC5CCOCC5)c([N+](=O)[O-])c4)c(Oc4cnc5[nH]ccc5c4)c3)CC2)=C(c2ccc(Cl)cc2)C1 [Venetoclax] + Cn1cnc2c(F)c(Nc3ccc(Br)cc3Cl)c(C(=O)NOCCO)cc21 [Selumetinib] (first compound max 1 µM, 7x7, partner max 3 µM)

(A)
1. 0.315
2. 0.491
3. 0.212
4. 0.693

Required: combination Emax, one value per compound below.
1. Cc1cc2ncnn2cc1Nc1ncc2c(n1)n(C1CCOCC1)c(=O)n2C [AZD7648] + COc1cc([C@@H]2c3cc4c(cc3[C@@H](O[C@@H]3O[C@@H]5CO[C@@H](C)O[C@H]5[C@H](O)[C@H]3O)[C@H]3COC(=O)[C@H]23)OCO4)cc(OC)c1O [Etoposide] (first compound max 10 µM, 7x7, partner max 10 µM)
2. Cc1c2c(nn1C)CSCc1cc(n(C)n1)CSc1cc(c3ccccc3c1)OCCCc1c(C(=O)O)n(C)c3c-2c(Cl)ccc13 [AZD5991] + C=CCn1c(=O)c2cnc(Nc3ccc(N4CCN(C)CC4)cc3)nc2n1-c1cccc(C(C)(C)O)n1 [AZD1775] (first compound max 1 µM, partner max 1 µM)
3. CN(C)CCCOc1ccc(-c2ccc3ncc4c(c3c2)n(C2CCOCC2)c(=O)n4C)cn1 [AZD0156] + C[C@@H]1COCCN1C2=NC(=NC(=C2)C3(CC3)[S@](=N)(=O)C)C4=C5C=CNC5=NC=C4 [AZD6738] (first compound max 1 µM, 7x7, partner max 10 µM)

(A)
[0.432, 0.88, 0.8]

###

- Test system: NCI-H2087 (Lung Adenocarcinoma)
- PROCEDURE_TEXT: combination Emax (second highest fraction inhibited in the dose matrix, 72 h); higher = more inhibition; extreme values may be limits of the assay
Label Condition met when combination Emax is at or above 0.6; otherwise label Condition not met.

(Q) Exam item: decide whether the reported combination Emax for NC1(C(=O)N[C@@H](CCO)c2ccc(Cl)cc2)CCN(c2ncnc3[nH]ccc23)CC1 [Capivasertib] + COc1nnc2ccc(N3CCC(c4ccc(OCCN5CCN(C)C(=O)[C@H]5C)cc4)CC3)nn12 [AZD5153] (first compound max 10 µM, 7x7, partner max 1 µM) is at least 0.6.
(A) Condition not met

(Q) Does combination Emax meet or surpass 0.6 for CN(CCO)CC[C@H](CSc1ccccc1)Nc1ccc(S(=O)(=O)NC(=O)c2ccc(N3CCC([C@@H](O)c4ccccc4-c4ccc(Cl)cc4)CC3)cc2)cc1S(=O)(=O)C(F)(F)F [AZD4320] + Cn1cnc2c(F)c(Nc3ccc(Br)cc3Cl)c(C(=O)NOCCO)cc21 [Selumetinib] (first compound max 1 µM, 7x7, partner max 3 µM) ?
(A) Condition met

(Q) State whether the measured combination Emax reaches 0.6, counting equality as reaching it, for COc1cccc(OCCCN)c1-c1cc(Nc2cnc(C#N)cn2)n[nH]1 [Prexasertib] + C[C@@H]1COCCN1C2=NC(=NC(=C2)C3(CC3)[S@](=N)(=O)C)C4=C5C=CNC5=NC=C4 [AZD6738] (first compound max 1 µM, 7x7, partner max 10 µM)
(A) Condition met

(Q) Hello, I need to know if COc1nnc2ccc(N3CCC(c4ccc(OCCN5CCN(C)C(=O)[C@H]5C)cc4)CC3)nn12 [AZD5153] + CC1(C)CCC(CN2CCN(c3ccc(C(=O)NS(=O)(=O)c4ccc(NCC5CCOCC5)c([N+](=O)[O-])c4)c(Oc4cnc5[nH]ccc5c4)c3)CC2)=C(c2ccc(Cl)cc2)C1 [Venetoclax] (first compound max 1 µM, 7x7, partner max 1 µM) has measured combination Emax not below 0.6. Thanks!
(A) Condition not met

(Q) Form field: combination Emax at least 0.6? Entry: COc1nnc2ccc(N3CCC(c4ccc(OCCN5CCN(C)C(=O)[C@H]5C)cc4)CC3)nn12 [AZD5153] + CCN(CCO)CCCOc1ccc2c(Nc3cc(CC(=O)Nc4cccc(F)c4)[nH]n3)ncnc2c1 [AZD2811] (first compound max 1 µM, 7x7, partner max 1 µM)
(A) Condition not met

(Q) For this compound, is measured combination Emax 0.6 or higher? C[C@@H]1COCCN1c1cc(C2([S@](C)(=N)=O)CC2)nc(-c2ccnc3[nH]ccc23)n1 [AZD6738] + C1CC(C1)(C(=O)[O-])C(=O)[O-].N.N.[Pt+2] [Carboplatin] (first compound max 10 µM, 7x7, partner max 10 µM)
(A) Condition not met

(Q) Has CN(C)CCCOc1ccc(-c2ccc3ncc4c(c3c2)n(C2CCOCC2)c(=O)n4C)cn1 [AZD0156] + CCN(CCO)CCCOc1ccc2c(Nc3cc(CC(=O)Nc4cccc(F)c4)[nH]n3)ncnc2c1 [AZD2811] (first compound max 1 µM, 7x7, partner max 1 µM) a recorded combination Emax greater than or equal to 0.6?
(A) Condition not met
